Test system: E. coli
assay info: microbe, parasite or virus in culture
Assay type: cell-based
condition: Escherichia coli, E. coli KU1039, mutant type SP
outcome measure: MIC (µg/mL)

In [3]: df
Out[3]:
                                   compound  measured_result
0  N[C@@H]1[C@H]2CN(c3nc4c(cc3F)c(=O)c(C(=O)O)cn4-c3ccc(F)cc3F)C[C@@H]12 [Trovafloxacin, trovafloxacin]             0.25
1  CO/N=C1\CN(c2nc3c(cc2F)c(=O)c(C(=O)O)cn3C2CC2)CC1CN (racemic) [Gemifloxacin]            0.125
2  NC1CCN(c2nc3c(cc2F)c(=O)c(C(=O)O)cn3-c2ccc(F)cc2F)C1 (centres unmarked) [Tosufloxacin, tosufloxacin]            0.063
3  C[C@@H]1CN(c2c(F)c(N)c3c(=O)c(C(=O)O)cn(C4CC4)c3c2F)C[C@H](C)N1 [Sparfloxacin, sparfloxacin]             0.25
4  C[C@H]1COc2c(N3CCN(C)CC3)c(F)cc3c(=O)c(C(=O)O)cn1c23 [Levofloxacin, levofloxacin]             0.25

----------
System: Streptococcus pneumoniae
assay info: MIC by NCCLS broth microdilution, 1100 Japanese clinical isolates 1997-1998
Assay type: cell-based
condition: Streptococcus pneumoniae, Streptococcus pneumoniae quinolone resistant, strain TMS2
outcome measure: MIC

>>> df
                                   molecule     target_or_test_system  measured_result
0  CO/N=C1\CN(c2nc3c(cc2F)c(=O)c(C(=O)O)cn3C2CC2)CC1CN (racemic)  Streptococcus pneumoniae        0.5 µg/mL
1  NC1CCN(c2nc3c(cc2F)c(=O)c(C(=O)O)cn3-c2ccc(F)cc2F)C1 (centres unmarked)  Streptococcus pneumoniae          8 µg/mL
2  C[C@H]1COc2c(N3CCN(C)CC3)c(F)cc3c(=O)c(C(=O)O)cn1c23  Streptococcus pneumoniae         16 µg/mL
3  N[C@@H]1[C@H]2CN(c3nc4c(cc3F)c(=O)c(C(=O)O)cn4-c3ccc(F)cc3F)C[C@@H]12  Streptococcus pneumoniae          1 µg/mL
4  C[C@@H]1CN(c2c(F)c(N)c3c(=O)c(C(=O)O)cn(C4CC4)c3c2F)C[C@H](C)N1  Streptococcus pneumoniae          8 µg/mL

----------
Test system: Staphylococcus aureus
assay info: MIC by NCCLS broth microdilution, 1100 Japanese clinical isolates 1997-1998
Assay type: cell-based
condition: Staphylococcus aureus, Staphylococcus aureus quinolone resistant, strain TMS5; read-out: MIC
outcome measure: MIC (µg/mL)

                                   compound  outcome_measure  measured_result
0  C[C@H]1COc2c(N3CCN(C)CC3)c(F)cc3c(=O)c(C(=O)O)cn1c23 [Levofloxacin, levofloxacin]              MIC                4
1  C[C@@H]1CN(c2c(F)c(N)c3c(=O)c(C(=O)O)cn(C4CC4)c3c2F)C[C@H](C)N1 [Sparfloxacin, sparfloxacin]              MIC                8
2  NC1CCN(c2nc3c(cc2F)c(=O)c(C(=O)O)cn3-c2ccc(F)cc2F)C1 (centres unmarked) [Tosufloxacin, tosufloxacin]              MIC                4
3  CO/N=C1\CN(c2nc3c(cc2F)c(=O)c(C(=O)O)cn3C2CC2)CC1CN (racemic) [Gemifloxacin]              MIC                2
4  N[C@@H]1[C@H]2CN(c3nc4c(cc3F)c(=O)c(C(=O)O)cn4-c3ccc(F)cc3F)C[C@@H]12 [Trovafloxacin, trovafloxacin]              MIC                1

----------
Tested on: Shigella spp.
assay info: MIC by agar dilution (NCCLS M7-A4), 288 enteropathogenic isolates, eight quinolones
Type: cell-based
condition: Shigella spp. (n = 21)
Catalogue of MIC Range readings, one per entry.
outcome measure: MIC Range

>>> df
                                   compound  target_or_test_system       measured_result
0  Cc1c(F)c(N2CCNC(C)C2)cc2c1c(=O)c(C(=O)O)cn2C1CC1 (stereo not drawn)          Shigella spp.  ≤0.015 to 0.03 µg/mL
1  CCn1cc(C(=O)O)c(=O)c2cc(F)c(N3CCNCC3)cc21          Shigella spp.    0.03 to 0.06 µg/mL
2  CC1COc2c(N3CCN(C)CC3)c(F)cc3c(=O)c(C(=O)O)cn1c23 (stereo not drawn)          Shigella spp.  ≤0.015 to 0.06 µg/mL
3  N[C@@H]1[C@H]2CN(c3nc4c(cc3F)c(=O)c(C(=O)O)cn4-c3ccc(F)cc3F)C[C@@H]12          Shigella spp.          ≤0.015 µg/mL
4  CO/N=C1\CN(c2nc3c(cc2F)c(=O)c(C(=O)O)cn3C2CC2)CC1CN (racemic)          Shigella spp.          ≤0.015 µg/mL
5           CCn1cc(C(=O)O)c(=O)c2ccc(C)nc21          Shigella spp.          1 to 2 µg/mL

----------
Catalogue of MIC Range readings, one per entry.
System: Streptococcus pneumoniae
assay info: MIC by agar dilution (NCCLS), 411 isolates Buenos Aires 1998-99
Format: cell-based
condition: Streptococcus pneumoniae (n = 90)
outcome measure: MIC Range

>>> print(df.to_string())
                                   molecule        measured_result
0  N[C@@H]1[C@H]2CN(c3nc4c(cc3F)c(=O)c(C(=O)O)cn4-c3ccc(F)cc3F)C[C@@H]12 [Trovafloxacin, trovafloxacin]       0.016 to 1 µg/mL
1  C[C@H]1COc2c(N3CCN(C)CC3)c(F)cc3c(=O)c(C(=O)O)cn1c23 [Levofloxacin, levofloxacin]        0.25 to 4 µg/mL
2  CC1COc2c(N3CCN(C)CC3)c(F)cc3c(=O)c(C(=O)O)cn1c23 (stereo not shown) [Ofloxacin, ofloxacin]          1 to 16 µg/mL
3  CO/N=C1\CN(c2nc3c(cc2F)c(=O)c(C(=O)O)cn3C2CC2)CC1CN (racemic) [Gemifloxacin]  ≤0.004 to 0.125 µg/mL

----------
Test system: Moraxella catarrhalis
assay info: MIC by NCCLS reference broth microdilution, 450 respiratory tract pathogens
Type: cell-based
condition: β-lactamase positive (n = 37)
outcome measure: MIC

In [3]: df
Out[3]:
                                   compound     measured_result
0  N[C@@H]1[C@H]2CN(c3nc4c(cc3F)c(=O)c(C(=O)O)cn4-c3ccc(F)cc3F)C[C@@H]12    3.75 to 60 ng/mL
1  O=C(O)c1cn(C2CC2)c2cc(N3CCNCC3)c(F)cc2c1=O    3.75 to 60 ng/mL
2  C[C@H]1COc2c(N3CCN(C)CC3)c(F)cc3c(=O)c(C(=O)O)cn1c23    3.75 to 30 ng/mL
3  C[C@@H]1CN(c2c(F)c(N)c3c(=O)c(C(=O)O)cn(C4CC4)c3c2F)C[C@H](C)N1    3.75 to 60 ng/mL
4  CO/N=C1\CN(c2nc3c(cc2F)c(=O)c(C(=O)O)cn3C2CC2)CC1CN (racemic)    3.75 to 30 ng/mL
5  COc1c(N2C[C@@H]3CCCN[C@@H]3C2)c(F)cc2c(=O)c(C(=O)O)cn(C3CC3)c12   3.75 to 120 ng/mL
6  CO/N=C(\C(=O)N[C@@H]1C(=O)N2C(C(=O)O)=C(COC(N)=O)CS[C@H]12)c1ccco1  3.75 to 1000 ng/mL
7  NC1CCN(c2c(F)cc3c(=O)c(C(=O)O)cn(C4CC4)c3c2Cl)C1 (centres unmarked)    3.75 to 15 ng/mL

----------
Catalogue of MIC90 readings, one per entry.
System: Streptococcus pneumoniae
assay info: MIC by E-test (broth microdilution for gemifloxacin), 107 pneumococcal carrier isolates, Athens 1998
Assay type: cell-based
condition: Streptococcus pneumoniae, Penicillin-intermediate S. pneumoniae (n = 24), E-test; read-out: MIC90
outcome measure: MIC90 (µg/mL)

compound	target or test system	readout unit	result comparator	measured result
N[C@@H]1[C@H]2CN(c3nc4c(cc3F)c(=O)c(C(=O)O)cn4-c3ccc(F)cc3F)C[C@@H]12	Streptococcus pneumoniae	µg/mL	=	0.38
CC[C@H]1OC(=O)[C@H](C)[C@@H](O[C@H]2C[C@@](C)(OC)[C@@H](O)[C@H](C)O2)[C@H](C)[C@@H](O[C@@H]2O[C@H](C)C[C@H](N(C)C)[C@H]2O)[C@](C)(O)C[C@@H](C)CN(C)[C@H](C)[C@@H](O)[C@]1(C)O	Streptococcus pneumoniae	µg/mL	≥	256
Cc1c(F)c(N2CCNC(C)C2)cc2c1c(=O)c(C(=O)O)cn2C1CC1 (stereo not drawn)	Streptococcus pneumoniae	µg/mL	=	0.38
CO/N=C1\CN(c2nc3c(cc2F)c(=O)c(C(=O)O)cn3C2CC2)CC1CN (racemic)	Streptococcus pneumoniae	µg/mL	=	0.23
CC1COc2c(N3CCN(C)CC3)c(F)cc3c(=O)c(C(=O)O)cn1c23 (stereo not drawn)	Streptococcus pneumoniae	µg/mL	=	3
CC[C@H]1OC(=O)[C@H](C)[C@@H](O[C@H]2C[C@@](C)(OC)[C@@H](O)[C@H](C)O2)[C@H](C)[C@@H](O[C@@H]2O[C@H](C)C[C@H](N(C)C)[C@H]2O)[C@](C)(OC)C[C@@H](C)C(=O)[C@H](C)[C@@H](O)[C@]1(C)O	Streptococcus pneumoniae	µg/mL	≥	256
